target-entity: human LPA1 (Homo sapiens)
Sequence (Q92633 whole entry): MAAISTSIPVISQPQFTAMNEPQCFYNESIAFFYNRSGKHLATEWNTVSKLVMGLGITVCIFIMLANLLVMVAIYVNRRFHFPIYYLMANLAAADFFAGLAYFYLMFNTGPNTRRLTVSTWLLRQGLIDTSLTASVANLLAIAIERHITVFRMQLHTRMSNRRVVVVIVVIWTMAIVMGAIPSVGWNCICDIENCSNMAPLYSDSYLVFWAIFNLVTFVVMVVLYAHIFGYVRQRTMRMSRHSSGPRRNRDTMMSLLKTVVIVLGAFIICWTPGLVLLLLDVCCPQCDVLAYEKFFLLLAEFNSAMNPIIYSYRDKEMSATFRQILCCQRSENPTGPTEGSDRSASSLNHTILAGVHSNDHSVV
measurement-description: LPA1 functional antagonist assay (LPA-induced calcium flux)
conditions: CHO cells overexpressing human LPA1, 10 nM LPA, read-out: hLPA1 IC50
Description: The effectiveness of compounds of the present invention as LPA1 inhibitors can be determined in an LPA1 functional antagonist assay as follows: Chinese hamster ovary cells overexpressing human LPA1 were plated overnight (15,000 cells/well) in poly-D-lysine coated 384-well microplates (Greiner bio-one, Cat #781946) in DMEM/F12 medium (Gibco, Cat #11039). […] IC50 values were determined by fitting data to a 4-parameter logistic equation (GraphPad Prism, San Diego Calif.).
Flag rule - IC50 less than 100 nM flags Y; the remaining entries get N.

CCOc1ccnc(NCc2c(-c3ncc(O[C@H]4CCC[C@H](C(=O)O)C4)c(C)n3)cnn2C)n1 [Example 3]	Y

Q: Lab note: confirm whether the reported IC50 for this molecule is below 100 nM, equality not counting. molecule: Cc1nc(-c2cnn(C)c2CNc2nccc(OCC(F)(F)C(F)F)n2)ncc1O[C@H]1CCC[C@H](C(=O)O)C1 [Example 39]
Ans: Y

Q: Take the molecule Cc1nc(-c2cnn(C)c2CNc2ncnc(C(C)C)n2)ncc1O[C@H]1CCC[C@H](C(=O)O)C1 [Example 43] and say whether its IC50 is less than 100 nM.
Ans: Y

Q: Regarding CCCOc1ccnc(Nc2c(-c3ncc(O[C@H]4CCC[C@H](C(=O)O)C4)c(C)n3)cnn2C)n1 [Example 20] , kindly confirm whether its IC50 is beneath 100 nM.
Ans: N

Q: In plain terms, does Cc1nc(-c2cnn(C)c2CNc2ccnc(OC3CC(F)(F)C3)n2)ncc1O[C@H]1CCC[C@H](C(=O)O)C1 [Example 32] come in under 100 nM for IC50?
Ans: N

Q: State whether 100 nM exceeds IC50 recorded for Cn1ncc(-c2ccc(O[C@H]3CCC[C@H](C(=O)O)C3)cn2)c1Nc1cccc(-c2cccc(F)c2)n1 [Example 42] .
Ans: N

Q: Answer whether the molecule CCc1ccnc(NCc2c(-c3ncc(O[C@H]4CCC[C@H](C(=O)O)C4)c(C)n3)cnn2C)n1 [Example 35] has IC50 strictly less than 100 nM
Ans: N

Attribution: patent US11312706B2
